- Test system: P12-Ichikawa
- Measurement Notes: cell viability relative to DMSO control; higher = less cytotoxic
- Condition Parameters: RPMI 5 mM glucose + 10% dialyzed FBS; 48 h; 1.71 µM
Parameter: cell viability (%)

>>> recorded_value("CCC(=O)N1CCN(CC1)C2=C(C=C(C=C2)N3C(=O)\\C=C/C4=C3C5=CC(=CC=C5N=C4)C6=CN=C7C=CC=CC7=C6)C(F)(F)F")
57.7
>>> recorded_value("O=C(NOCC1CC1)c1ccc(F)c(F)c1Nc1ccc(I)cc1Cl")
112
>>> recorded_value("Cc1nnc(C(=O)NC(C)(C)c2nc(C(=O)NCc3ccc(F)cc3)c(O)c(=O)n2C)o1")
94.4
>>> recorded_value("C[C@H](NC(=O)[C@@H](O)c1cc(F)cc(F)c1)C(=O)N[C@@H]1C(=O)N(C)c2ccccc2-c2ccccc21")
106
>>> recorded_value("CCOC(=O)c1c(CSc2ccccc2)n(C)c2cc(Br)c(O)c(CN(C)C)c12")
118
>>> recorded_value("COc1cc2c(cc1OC)CN(CCc1ccc(NC(=O)c3cccc4c(=O)c5cccc(OC)c5[nH]c34)cc1)CC2")
103
>>> recorded_value("c1coc(CNc2ncnc3nc[nH]c23)c1")
127
>>> recorded_value("Cc1noc(N[S+](=O)([O-])c2ccc(N)cc2)c1C")
99.3
>>> recorded_value("CCN1\\C=C(C(O)=O)/C(=O)C2=C1C(=C(N3CCNC(C)C3)C(=C2)F)F (stereo not drawn)")
113
>>> recorded_value("O=c1oc2cc(O)ccc2s1")
104
>>> recorded_value("COC(=O)[C@H](Cc1ccccc1)NC(=O)[C@@H](N)CC(=O)O")
110
>>> recorded_value("OC1=C(Cl)C=C(N\\C2=C(\\C(=O)NC2=O)C3=C(C=CC=C3)[N+]([O-])=O)C=C1")
106
>>> recorded_value("CCCCCN(C)CCC(O)(P(=O)([O-])O)P(=O)(O)O")
79.4
>>> recorded_value("CC(C)(C)[C@]1(O)C[C@@H]2OC(=O)C[C@@]23C(=O)O[C@@H]2OC(=O)[C@H](O)C213 (stereo partly drawn)")
105
>>> recorded_value("CC[C@H](CO)Nc1nc(NCc2ccccc2)c2ncn(C(C)C)c2n1")
88.7
>>> recorded_value("CN(C[C@@H]1COCCO1)[S+]([O-])(=O)NC2=CC3=C(C=C2)\\C=C/C4=C(C=C(C=N4)C5=C[N](C)N=C5)C3=O")
53.6
>>> recorded_value("O=C(Nc1cccnc1)N1CCC(Cc2cccc(Oc3ccc(C(F)(F)F)cn3)c2)CC1")
62.6
>>> recorded_value("CN(CC(=O)N(Cc1ccc(C2CCCCC2)cc1)c1ccc(C(=O)O)c(O)c1)[S+](=O)([O-])c1c(F)c(F)c(F)c(F)c1F")
96
>>> recorded_value("COC(=O)CCC1=C(C)C2=CC3=NC(=CC4=C(C)C(=C([NH]4)C=C\\5N=C(C=C1[NH]2)\\C(=C5C)CCC(O)=O)C=C)\\C6=C\\C=C(/[C@@H](C(=O)OC)[C@@]36C)C(=O)OC")
104
>>> recorded_value("CCCCN1CCC(CNC(=O)c2c3n(c4ccccc24)CCCO3)CC1")
112
>>> recorded_value("CC[C@H](C)C(=O)O[C@H]1C[C@@H](C)\\C=C2\\C=C/[C@H](C)[C@H](CC[C@@H]3C[C@@H](O)CC(=O)O3)[C@@H]12")
77.9
>>> recorded_value("O=C1c2ccccc2-c2n[nH]c3cccc1c23")
101
>>> recorded_value("CC(=O)N(O)CCCCCNC(=O)CCC(=O)N(O)CCCCCNC(=O)CCC(=O)N(O)CCCCCN.C[S+](=O)([O-])O")
16.7
